In this section, each of the compounds is paired with its reported inhibition of aggregation.
ASSAY_COMMENT: inhibitors of polyQ protein aggregation (AID 1604)
CONDITION_SUMMARY: polyglutamine-induced protein aggregation inhibition assay; stronger effect = higher value; concentration not given here
Value expressed in %; do not type the unit.

CC(=O)O[C@H]1C[C@H](O[C@H]2[C@@H](O)C[C@H](O[C@H]3[C@@H](O)C[C@H](O[C@H]4CC[C@@]5(C)C(CCC6C5C[C@@H](O)[C@]5(C)[C@@H](C7=CC(=O)OC7)CC[C@]65O)C4)O[C@@H]3C)O[C@@H]2C)O[C@H](C)[C@H]1O[C@@H]1O[C@H](CO)[C@@H](O)[C@H](O)[C@H]1O (stereo partly drawn): 100
CCCCCc1cc(O)c2c(c1)OC(C)(C)c1ccc(C)cc1-2: -2.04

Query: Item "CC(=O)Nc1cc([As](=O)(O)O)ccc1O" has what recorded inhibition of aggregation?
Reply: 43.7

====

ASSAY_COMMENT: suppressors of polyQ aggregation in yeast, 75Q-TubU reporter (AID 1593)
CONDITION_SUMMARY: Yeast 75Q polyglutamine aggregation reporter
Criterion: score strictly less than 1. Met: TRUE. Not met: FALSE.

# example entries with known answers
C[C@@]1(C(=O)O)CC[C@]2(C)CC[C@]3(C)C4=CC=C5C=C(O)C(=O)C=C5[C@]4(C)CC[C@@]3(C)[C@@H]2C1: FALSE
CN1C(=O)CN=C(c2ccccc2F)c2cc([N+](=O)[O-])ccc21: TRUE
CN1C2CC(OC(=O)[C@H](CO)c3ccccc3)C[C@H]1CC2O (some centres undefined): FALSE

Moving on to the next compound.
Query: Consider the compound "O=C1CC[C@@]2(O)[C@H]3Cc4ccc(O)c5c4C2(CCN3CC2CC2)[C@H]1O5" . Is its score strictly less than 1?
Reply: FALSE

====

SYSTEM_UNDER_TEST: 6-phosphogluconate dehydrogenase, decarboxylating (Homo sapiens)
ASSAY_COMMENT: 6PGD enzyme inhibitors, primary screen, biochemical, human, recombinant enzyme, NADPH absorbance (AID 1159550)
CONDITION_SUMMARY: recombinant 6PGD, NADPH absorbance 341 nm; at 10 µM; stronger effect = higher value
MEASURED_ENDPOINT: inhibition (%)
Give the number; % is assumed, so skip it.

Past entries and their recorded results:
O=C1CCO1: -4.86
CC(C)=CC1C(C(=O)OCc2cccc(Oc3ccccc3)c2)C1(C)C (configuration not stated): -5.61
CC(C)N(C(=O)SCC(Cl)=C(Cl)Cl)C(C)C: 4.75

Query: What value of measured inhibition is listed for "CC[C@H]1CN2CC[C@H]1C[C@@H]2[C@@H](O)c1ccnc2ccc(OC)cc12" ?
Reply: 5.31

Query: inhibition; subject: CC(C)(C)NCC(O)c1cc(Cl)c(N)c(Cl)c1 (configuration not stated)
Reply: -5.11

Query: Given the entry "CC[C@@H](C)C(=O)O[C@H]1[C@H](O)[C@H]2[C@@H](CN3C[C@@H](C)CC[C@H]3[C@@]2(C)O)[C@@H]2C[C@]34O[C@]5(O)[C@@H](OC(=O)[C@@](C)(O)[C@@H](C)O)CC[C@@]3(C)[C@@H]5[C@@H](OC(C)=O)[C@@H](OC(C)=O)[C@H]4[C@@]21O" , report its measured inhibition.
Reply: 7.64

Query: Need inhibition of "CCC1(CC)C(=O)C=CNC1=O" , thanks.
Reply: 8.27

Query: Requested read-out: inhibition. Entry: "C[C@H](N)[C@H](O)c1ccc(O)c(O)c1"
Reply: -1.74

Query: Value lookup for inhibition; key = COP(=O)(OC)OC(Br)C(Cl)(Cl)Br (configuration not stated)
Reply: -10.9

Query: Looking for the measured inhibition of "COc1cc2occc2c2oc(=O)ccc12" , can you help?
Reply: 11.9

Query: Given "CCOP(=S)(OCC)Oc1cc(C)nc(C(C)C)n1" , state its recorded inhibition.
Reply: -22.8

Query: # inhibition lookup, item CC(N)Cc1ccc(O)cc1 (configuration not stated)
Reply: -0.0931
